- experimentalSystem: Uracil-DNA glycosylase (Homo sapiens) (UniProt P13051);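 note: UNG excision on a quenched double-stranded DNA oligo probe, with APE1 added for strand incision and turnover, read as fluorescence at 594 nm as strands separate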
- Sequence (P13051 whole entry): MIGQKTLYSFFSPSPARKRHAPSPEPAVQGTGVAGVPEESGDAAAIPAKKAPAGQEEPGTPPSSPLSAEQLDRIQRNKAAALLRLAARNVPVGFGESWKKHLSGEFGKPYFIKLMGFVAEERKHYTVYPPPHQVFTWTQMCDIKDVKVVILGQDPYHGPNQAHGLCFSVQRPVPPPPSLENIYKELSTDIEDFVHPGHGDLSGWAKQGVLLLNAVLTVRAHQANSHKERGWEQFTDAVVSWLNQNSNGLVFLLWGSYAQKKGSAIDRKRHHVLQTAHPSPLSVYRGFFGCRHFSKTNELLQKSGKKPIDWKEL
- conditionSet: Compound Concentration 10.0 uM, Hit No
- Description: Inhibition of UNG by quantifying inhibition of UNG-mediated cleavage and dissociation of quenched duplex DNA oligonucleotides, measured as fluorescence at 594 nm. To generate a functional strand incision and increase turn-over this assay is coupled to APE1.
Catalogue of inhibition values
Record the value in %, omitting the unit from your answer.

Some molecules with known inhibition results, for comparison:
molecule	experimentalSystem	inhibition, %
NC(=O)c1cc(-c2ccc(S(=O)(=O)[C@H]3CC[C@H](Nc4ccc(C(F)(F)F)cn4)CC3)cc2)ccn1	Uracil-DNA glycosylase (Homo sapiens) (UniProt P13051)	4.02
CC(C)(C)OC(=O)N1CCCC1CNC1CCC(c2cc(F)ccc2F)(S(=O)(=O)c2ccc(Cl)cc2)CC1 (configuration not stated)	Uracil-DNA glycosylase (Homo sapiens) (UniProt P13051)	1.86
Cc1cc2c(-c3ccco3)cnc(N[C@@H]3CCN(C)C[C@H]3C(=O)NC3CCCCC3)c2[nH]c1=O	Uracil-DNA glycosylase (Homo sapiens) (UniProt P13051)	-3.36

Readout inhibition for O=C(N[C@@H]1C2CCN(CC2)[C@H]1Cc1cccnc1)c1cc2ccccc2o1 , test system Uracil-DNA glycosylase (Homo sapiens) (UniProt P13051), was -1.31

Readout inhibition for C=CC(=O)Nc1ccc2[nH]c(=O)n(C3CCN(Cc4ccc(-c5nc6cc[nH]c(=O)c6cc5-c5ccccc5)cc4)CC3)c2c1 , test system Uracil-DNA glycosylase (Homo sapiens) (UniProt P13051), was 4.17

Readout inhibition for COc1ccc(CC[C@@H](OC(=O)[C@H]2CCCCN2C(=O)[C@@H](c2cc(OC)c(OC)c(OC)c2)C2CCCCC2)c2cccc(OCCN3CCOCC3)c2)cc1OC , test system Uracil-DNA glycosylase (Homo sapiens) (UniProt P13051), was 9.57

Readout inhibition for Cc1cc(C)cc(C(=O)N(C)[C@H](Cc2ccc(-c3ccccc3)cc2)C(=O)N[C@@H](Cc2c[nH]c3ccccc23)C(=O)O)c1 , test system Uracil-DNA glycosylase (Homo sapiens) (UniProt P13051), was 6.08
